Cited source: paper PMC4423475

# ASSAY SYSTEM: horseradish peroxidase (HRP) (Armoracia rusticana, UniProt P00433)
# Sequence (P00433 31-353): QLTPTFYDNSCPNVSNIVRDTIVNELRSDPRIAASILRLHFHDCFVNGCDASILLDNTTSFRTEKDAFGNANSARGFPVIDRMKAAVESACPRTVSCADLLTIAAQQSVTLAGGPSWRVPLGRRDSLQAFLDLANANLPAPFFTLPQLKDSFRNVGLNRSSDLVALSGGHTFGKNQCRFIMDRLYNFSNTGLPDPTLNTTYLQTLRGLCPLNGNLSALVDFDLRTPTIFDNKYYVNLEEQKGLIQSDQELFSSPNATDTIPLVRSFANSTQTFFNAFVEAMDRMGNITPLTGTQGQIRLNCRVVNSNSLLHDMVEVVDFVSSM
# EXPERIMENTAL DETAILS: HRP inhibition control (compounds tested for their ability to inhibit HRP)
# Type: biochemical
# STATED CONDITIONS: compound at 100 μM
QUANTITY KIND: HRP inhib.

COc1cc2cc(CN(Cc3ccc(F)cc3)Cc3nnnn3Cc3cccc(-c4ccccc4)c3)c(=O)[nH]c2cc1OC :: No
COc1cc2cc(CN(Cc3ccc(Br)cc3)Cc3nnnn3Cc3ccccc3)c(=O)[nH]c2cc1OC :: No
COc1cc2cc(CN(Cc3ccccc3)Cc3nnnn3Cc3ccccc3)c(=O)[nH]c2cc1OC :: Yes
